Catalogue of rec. Human PAPP-A IGFBP4 pIC50 (G-401 pAKT assay) readings, one per entry.
TARGET_OF_ASSAY: recombinant human PAPPA (pregnancy associated plasma protein-A) (human, UniProt Q13219 82-1627)
Sequence (Q13219 82-1627 limits assumed): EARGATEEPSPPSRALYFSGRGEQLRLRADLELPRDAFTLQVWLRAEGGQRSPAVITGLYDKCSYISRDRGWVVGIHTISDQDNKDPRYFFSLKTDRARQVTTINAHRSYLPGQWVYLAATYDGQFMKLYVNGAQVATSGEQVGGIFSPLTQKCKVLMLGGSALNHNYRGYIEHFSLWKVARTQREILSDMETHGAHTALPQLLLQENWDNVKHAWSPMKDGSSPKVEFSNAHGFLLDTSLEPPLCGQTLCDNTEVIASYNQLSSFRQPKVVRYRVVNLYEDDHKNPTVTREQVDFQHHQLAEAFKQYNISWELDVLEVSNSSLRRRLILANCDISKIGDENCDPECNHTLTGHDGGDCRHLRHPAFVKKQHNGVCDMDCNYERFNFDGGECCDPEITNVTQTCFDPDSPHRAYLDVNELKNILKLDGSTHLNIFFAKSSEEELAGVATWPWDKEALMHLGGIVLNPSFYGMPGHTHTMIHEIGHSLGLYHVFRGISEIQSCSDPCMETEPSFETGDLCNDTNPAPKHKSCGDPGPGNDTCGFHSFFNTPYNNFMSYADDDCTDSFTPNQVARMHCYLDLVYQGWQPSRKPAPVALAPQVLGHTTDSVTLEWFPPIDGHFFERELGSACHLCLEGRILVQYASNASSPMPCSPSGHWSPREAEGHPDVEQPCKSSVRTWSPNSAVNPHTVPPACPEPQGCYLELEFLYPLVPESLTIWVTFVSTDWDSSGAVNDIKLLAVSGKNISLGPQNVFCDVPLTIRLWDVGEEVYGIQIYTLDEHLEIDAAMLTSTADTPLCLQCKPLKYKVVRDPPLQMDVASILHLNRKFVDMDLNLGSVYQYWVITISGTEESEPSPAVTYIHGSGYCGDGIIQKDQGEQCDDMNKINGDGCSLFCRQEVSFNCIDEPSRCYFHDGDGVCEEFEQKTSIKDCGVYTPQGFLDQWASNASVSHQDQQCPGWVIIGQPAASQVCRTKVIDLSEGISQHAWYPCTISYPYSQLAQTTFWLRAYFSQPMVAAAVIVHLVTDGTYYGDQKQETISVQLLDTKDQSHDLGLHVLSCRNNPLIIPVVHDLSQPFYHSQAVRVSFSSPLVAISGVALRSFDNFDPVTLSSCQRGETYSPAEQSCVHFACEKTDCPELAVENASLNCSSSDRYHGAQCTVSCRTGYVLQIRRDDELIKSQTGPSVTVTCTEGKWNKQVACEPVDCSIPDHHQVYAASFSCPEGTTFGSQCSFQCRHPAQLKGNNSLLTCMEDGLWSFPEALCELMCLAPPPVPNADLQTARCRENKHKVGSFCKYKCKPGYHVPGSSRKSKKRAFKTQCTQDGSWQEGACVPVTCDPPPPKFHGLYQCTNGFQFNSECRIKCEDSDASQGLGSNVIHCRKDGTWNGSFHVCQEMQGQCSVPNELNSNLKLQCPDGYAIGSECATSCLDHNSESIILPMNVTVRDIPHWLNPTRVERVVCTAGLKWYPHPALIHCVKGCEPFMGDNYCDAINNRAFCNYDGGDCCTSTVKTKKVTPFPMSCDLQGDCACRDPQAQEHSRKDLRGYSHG
MEASUREMENT_PROTOCOL: cell-based or functional assay
Return type: number; implicit unit pIC50.

BINDER	TEST_VALUE
TPP-12801 (antibody, human IgG1, kappa, V domains shown) VH: QLQLQESGPGLVKPSETLSLTCTVSGGSISSSDYYWGWIRQPPGKGLEWIGSIFYSGSTYYNPSLKSRVTISVDTSKNQFSLKLSSVTAADTAVYYCARATTSSSADYWGQGTLVTVSS VL: DIQMTQSPSSVSASVGDRVTITCRASQGVSRWLAWYQQKPGKAPKLLIYAASSLQSGVPSRFSGSGSGTDFTLTISSLQPEDFATYYCQQGNVPPLTFGGGTKVEIKR	9.22
TPP-12708 (antibody, human IgG1, kappa, V domains shown) VH: QVQLVQSGAEVKKPGASVKVSCKASGYTFTSYAMHWVRQAPGQRLEWMGWINAGTGATKYARKFQGRVTITRDTSASTAYMELSSLRSEDTAVYYCARGPSMETPTTYGMEVWGQGTTVTVSS VL: DIQMTQSPSSVSASVGDRVTITCRASQGISRWLAWYQQKPGKAPKLLIYSTSSLQLGVPSRFSGSGSGTDFTLTISSLQPEDFATYYCQQENDYPFTFGGGTKVEIKR	9.59
TPP-12681 (antibody, human IgG1, kappa, V domains shown) VH: EVQLVQSGAEVKKPGESLKISCKGSGYSFTSYWTGWVRQAPGKGLEWMGIIYPGGSVARYSPSFQGQVTISADKSISTAYLQWSSLKASDTAVYYCARGPLRSDYPDVWGQGTMVTVSS VL: EIVMTQSPATLSVSPGERATLSCRASQSVGSYLAWYQQKPGQAPRLLIYRGSTRATGIPARFSGSGSGTEFTLTISSLQSEDFAVYYCQQPYVWPITFGGGTKVEIKR	9.57
TPP-12743 (antibody, human IgG1, kappa, V domains shown) VH: QVQLVQSGAEVKKPGASVKVSCKASGYTFTSYAMHWVRQAPGQRLEWMGWMNAGTGATKSSQKFQGRVTITRDTSASTAYMELSSLRSEDTAVYYCARGPSLETPTTFGMDVWGQGTTVTVSS VL: DIQMTQSPSSVSASVGDRVTITCRASQGISRWLAWYQQKPGKAPKLLIYAASSLQSGVPSRFSGSGSGTDFTLTISSLQPEDFATYYCQQENAYPFTFGGGTKVEIKR	9.36

What measured rec. Human PAPP-A IGFBP4 pIC50 (G-401 pAKT assay) goes with TPP-12821 (antibody, human IgG1, kappa, V domains shown) VH: EVQLVQSGAEVKKPGESLKISCKGSGYSFTSDWIGWVRQAPGKGLEWMGIIYPGGSDTRYSPSFRGQVTISADKSISTAYLQWSSLKASDTAVYYCARGPLRSDYVDVWGQGTMVTVSS VL: EIVMTQSPATLSVSPGERATLSCRASQSVGSNLAWYQQKPGQAPRLLIYRASTRATGIPARFSGSGSGTEFTLTISSLQSEDFAVYYCQQPYVWPITFGGGTKVEIKR ? 9.45

Using the record for TPP-12744 (antibody, human IgG1, kappa, V domains shown, human IgG1/kappa, Fc-disabled (L235A, G237A)) VH: QVQLVQSGAEVKKPGASVKVSCKASGYTFTSYAMHWVRQAPGQRLEWMGWMNAGTGATKSSQKFQGRVTITRDTSASTAYMELSSLRSEDTAVYYCARGPSMETPTTFGMDVWGQGTTVTVSS VL: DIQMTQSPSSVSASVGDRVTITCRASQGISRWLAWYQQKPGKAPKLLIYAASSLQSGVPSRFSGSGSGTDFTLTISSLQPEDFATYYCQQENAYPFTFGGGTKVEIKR , report its rec. Human PAPP-A IGFBP4 pIC50 (G-401 pAKT assay). 9.46

Given the entry TPP-12792 (antibody, human IgG1, kappa, V domains shown) VH: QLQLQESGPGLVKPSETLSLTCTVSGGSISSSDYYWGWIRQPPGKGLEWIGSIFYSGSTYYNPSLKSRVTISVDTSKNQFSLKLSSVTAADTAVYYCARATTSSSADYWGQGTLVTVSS VL: DIQMTQSPSSVSASVGDRVTITCRASQGISRWLAWYQQKPGKAPKLLIYAASSVQSGVPSRFSGSGSGTDFTLTISSLQPEDFATYYCQQGNVPPLTFGGGTKVEIKR , report its measured rec. Human PAPP-A IGFBP4 pIC50 (G-401 pAKT assay). 9.18

Fill blank: measured rec. Human PAPP-A IGFBP4 pIC50 (G-401 pAKT assay) of the binder TPP-12683 (antibody, human IgG1, kappa, V domains shown) VH: QLQLQESGPGLVKPSETLSLTCTVSGGSISSSSYNWGWIRQPPGKGLEWIGSISSSGSTYFNPSLKSRVTISVDTSKNQFSLKLSSVTAADTAVYYCARSGYRPSFYAMDAWGQGTTVTVSS VL: DIQLTQSPSSVSASVGDRVTITCRASQDISYWLAWYQQKPGKAPKLLIYAASSLQSGVPSRFSGSGSGTDFTLTISSLQPEDFATYYCQQAYLLHTFGGGTKVEIKR is ____. 8.84
